Listing of recorded GI50 by entry.
Tested on: Renal SN12-C
experiment: NCI-60 cell line assay, Renal SN12-C
Type: cell-based
test.settings: Homo sapiens, SN12C, read-out: GI50 Renal SN12-C
Write down the numeric answer in nM and omit the unit.

Solved entries:
>  <compound>
COc1cc2c(cc1O)CCN(Cc1cc(Cl)c(OC)c(OC)c1)C2 [Compound 11e]

>  <GI50 (nM)>
910

$$$$
>  <compound>
COc1cc2c(cc1OS(N)(=O)=O)CCN(Cc1cc(Br)c(OC)c(OC)c1)C2 [Compound 12f]

>  <GI50 (nM)>
55

$$$$
>  <compound>
CCc1cc(CN2CCc3cc(OS(N)(=O)=O)c(OC)cc3C2)cc(CC)c1CC [Compound 12i]

>  <GI50 (nM)>
5290

$$$$
>  <compound>
COc1cc2c(cc1OS(N)(=O)=O)CCN(Cc1cc(Cl)c(OC)c(OC)c1)C2 [Compound 12e]

>  <GI50 (nM)>
66

$$$$
>  <compound>
COc1cc2c(cc1O)CCN(Cc1cc(Br)c(OC)c(OC)c1)C2 [Compound 11f]

>  <GI50 (nM)>
768

$$$$

Below: the item to evaluate.
State the recorded GI50 for this entry: COc1cc(CN2CCc3cc(O)ccc3C2)cc(OC)c1OC [Compound 20b]
49

###

Tested on: Colon HCT-116
experiment: NCI-60 cell line assay, Colon HCT-116
Type: cell-based
test.settings: Homo sapiens, HCT-116, read-out: GI50 Colon HCT-116
Listing of recorded GI50 by entry.
A bare number is not enough; add the unit after it.

Solved entries:
>  <molecule>
COc1cc2c(cc1OS(N)(=O)=O)CCN(Cc1cc(Cl)c(OC)c(OC)c1)C2 [Compound 12e]

>  <observable>
GI50

>  <value.measured>
39 nM

$$$$
>  <molecule>
COc1cc2c(cc1OS(N)(=O)=O)CCN(Cc1cc(Br)c(OC)c(OC)c1)C2 [Compound 12f]

>  <observable>
GI50

>  <value.measured>
38 nM

$$$$
>  <molecule>
COc1cc(CN2CCc3cc(O)ccc3C2)cc(OC)c1OC [Compound 20b]

>  <observable>
GI50

>  <value.measured>
35 nM

$$$$
>  <molecule>
CCc1cc(CN2CCc3cc(OS(N)(=O)=O)c(OC)cc3C2)cc(CC)c1CC [Compound 12i]

>  <observable>
GI50

>  <value.measured>
1050 nM

$$$$

State the recorded GI50 for this entry: COc1cc2c(cc1O)CCN(Cc1cc(Cl)c(OC)c(OC)c1)C2 [Compound 11e]
474 nM

State the recorded GI50 for this entry: COc1cc2c(cc1O)CCN(Cc1cc(Br)c(OC)c(OC)c1)C2 [Compound 11f]
143 nM

###

Tested on: MDA MB-231 human breast cancer cells
experiment: Antiproliferative assay
Format: cell-based
test.settings: Homo sapiens, MDA-MB-231, 96 h, read-out: GI50 MDA MB-231
Lab note - cut at 0.3 µM for GI50: Yes if strictly below, No if not.

>  <molecule>
COc1cc(C(=O)N2CCc3cc(O)ccc3C2)cc(OC)c1OC [Compound 20i]

>  <class.name>
No

$$$$

Is GI50 strictly under 0.3 µM for the entry COc1cc(CN2CCc3cc(OS(N)(=O)=O)ccc3C2)cc(OC)c1OC [Compound 20d] ?
No

Is GI50 strictly under 0.3 µM for the entry CCc1cc2c(cc1O)CCN(Cc1cc(Br)c(OC)c(OC)c1)C2 ?
No

Is GI50 strictly under 0.3 µM for the entry COc1cc2c(cc1OC)CN(Cc1cc(OC)c(OC)c(OC)c1)CC2 [Compound 17a] ?
No

Is GI50 strictly under 0.3 µM for the entry COc1cc(CN2CCc3cc(O)ccc3C2)cc(Cl)c1OC [Compound 20e] ?
No

Is GI50 strictly under 0.3 µM for the entry COc1cc(CCN2CCc3cc(O)ccc3C2)cc(OC)c1OC [Compound 20j] ?
No

Is GI50 strictly under 0.3 µM for the entry COc1ccc2c(c1)CCN(Cc1cc(OC)c(OC)c(OC)c1)C2 [Compound 20c] ?
No

Is GI50 strictly under 0.3 µM for the entry COc1cc2c(cc1OS(C)(=O)=O)CCN(Cc1cc(OC)c(OC)c(OC)c1)C2 [Compound 17c] ?
Yes

Is GI50 strictly under 0.3 µM for the entry CCOc1c(OC)cc(CN2CCc3cc(O)ccc3C2)cc1OC [Compound 20g] ?
No

Is GI50 strictly under 0.3 µM for the entry COc1cc(CN2CCc3cc(O)ccc3C2)cc(Br)c1OC [Compound 20f] ?
No

Origin of measurements: paper PMC4145847
